The entries below come with measured pKi values attached.
Biological target: UniProt:P28335
Sequence (P28335 whole entry): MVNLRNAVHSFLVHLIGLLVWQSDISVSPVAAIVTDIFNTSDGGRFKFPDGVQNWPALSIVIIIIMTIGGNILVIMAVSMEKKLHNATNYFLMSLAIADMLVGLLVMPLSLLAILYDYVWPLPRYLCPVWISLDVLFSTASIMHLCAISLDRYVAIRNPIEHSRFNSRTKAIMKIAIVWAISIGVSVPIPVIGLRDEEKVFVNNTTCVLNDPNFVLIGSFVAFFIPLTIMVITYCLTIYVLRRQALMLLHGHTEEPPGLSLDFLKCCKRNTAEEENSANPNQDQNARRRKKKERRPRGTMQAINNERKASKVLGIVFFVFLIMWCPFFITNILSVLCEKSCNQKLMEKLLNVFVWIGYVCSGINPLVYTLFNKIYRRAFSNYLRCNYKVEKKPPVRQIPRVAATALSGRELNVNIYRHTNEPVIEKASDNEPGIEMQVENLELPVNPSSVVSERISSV
Experiment: Inhibition of Cy3B conjugated serotonin analogue binding to human recombinant 5-HT2C receptor expressed in Swiss mouse 3T3 cell membranes after 60 mins by fluorescence polarization assay
pKi: −log10 of the molar value.
observable: pKi

[[record]]
structure_notation = "c1ccc(Cc2cc3c(c(NCC4CC4)n2)CCNCC3)cc1"
observed_measurement = 9.30

[[record]]
structure_notation = "CN(C)c1nc(Cc2ccccc2)cc2c1CCNCC2"
observed_measurement = 7.92

[[record]]
structure_notation = "CC(C)CNc1nc(Cc2ccccc2)cc2c1CCNCC2"
observed_measurement = 7.92

[[record]]
structure_notation = "c1ccc(Cc2cc3c(cn2)CCNCC3)cc1"
observed_measurement = 7.46

[[record]]
structure_notation = "c1ccc(CNc2nc(Cc3ccccc3)cc3c2CCNCC3)cc1"
observed_measurement = 7.66

[[record]]
structure_notation = "CNc1nc(Cc2ccccc2)cc2c1CCNCC2"
observed_measurement = 8.52

[[record]]
structure_notation = "CCCNc1nc(Cc2ccccc2)cc2c1CCNCC2"
observed_measurement = 8.40

[[record]]
structure_notation = "CC(C)Nc1nc(Cc2ccccc2)cc2c1CCNCC2"
observed_measurement = 7.89

[[record]]
structure_notation = "CCNc1nc(Cc2ccccc2)cc2c1CCNCC2"
observed_measurement = 8.52

